- System: K12877-001-R-J1-PDC complex spheroid viability;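 further: tumour cells co-cultured with HUVEC and mesenchymal stem cells in spheroids; spheroids exposed to agents for one week before readout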
- Experimental Details: Anticancer human tumor K12877-001-R-J1-PDC patient-derived lung adenocarcinoma cell line growth inhibition [RAS]; active means viability on the fitted dose curve at most 10% of control; inactive means the rest
- Study Conditions: second compound 0.0316 µM; first compound 0.3 µM
The categories you may choose from are active, inactive

Which outcome did this test record for the compound CCc1c2c(nc3ccc(O)cc13)-c1cc3c(c(=O)n1C2)COC(=O)[C@]3(O)CC + C=CC(=O)N1CCN(c2nc(OCC3CCCN3C)nc3c(F)c(-c4nc(N)cc(C)c4C(F)(F)F)c(Cl)cc23)C(C)C1 ?
active

# repeat for CC1(C)CCC(Nc2ncc(C(F)(F)F)c(-c3c[nH]c4c(P(C)(C)=O)c(C#N)ccc34)n2)CN1 (centres undefined) + C#Cc1c(F)ccc2cc(O)cc(-c3ncc4c(N5CC6CCC(C5)N6)nc(OCC56CCCN5CC(F)C6)nc4c3F)c12
inactive

# repeat for CCc1c2c(nc3ccc(O)cc13)-c1cc3c(c(=O)n1C2)COC(=O)[C@]3(O)CC + C#Cc1c(F)ccc2cc(O)cc(-c3ncc4c(N5CC6CCC(C5)N6)nc(OCC56CCCN5CC(F)C6)nc4c3F)c12
active

# repeat for CC1(C)CCC(Nc2ncc(C(F)(F)F)c(-c3c[nH]c4c(P(C)(C)=O)c(C#N)ccc34)n2)CN1 (centres undefined) + C=CC(=O)N1CCN(c2nc(OCC3CCCN3C)nc3c(F)c(-c4nc(N)cc(C)c4C(F)(F)F)c(Cl)cc23)C(C)C1
inactive

// data source = PubChem BioAssay AID2060894
